So I've got a bunch of sequences here, and I need their apparent KD of MS2 coat protein values.
# System: MS2 coat protein
# protocol notes: apparent KD of MS2 coat protein; higher = weaker reporter binding
# recorded conditions: Eterna round: R107; input ligand: theophylline 2 mM
Numbers only, in nM.

1) AAACGUUGCUGCGAUACCAGACAUGAGGAUCACCCAUGUACCAAGGUAACCGAAAGGCAUGUCCCUUGGCAGCGCAGCAACGAAA [MAT - Exclusion Theophlline B - Mod of Eli - D17]
262

Batch request: apparent KD of MS2 coat protein for each of the following sequences.
1. GGCCAUGGAAACAUGGCGGCGGCAUAUGCGCGAGGACCGGUACGGCCGCCACUCGGGCAACAUGAGGAUCACCCAUGUUCCUCAU [ETA NP+V+V2 #24 +-Same Structure]
2. UUAUUUAUAGGGUAUAUCAGAUUAACUGAAGGAGCGUGGUAAUUCACAGGUAGGUCGCAGAUGGAACAUGAGGAUCACCCAUGUU [JR_ExcArginiA_Sub015]

Reply |
1: 388; 2: 22.2

Batch request: apparent KD of MS2 coat protein for each of the following sequences.
1. AAUAAACAUGAGGAUCACCCAUGUAGGGUGCGAGGACCGGUACGGCCGCCACUCGGGUGAAAACAUGAAAAUCACCCAUGUAAAA [Mat - Exclusion - Trytophan A - D24]
2. UUAAUCAUAUUAGAAAACUAAUAUGCAGAAGGAGCGUGAUAAAACACAGGUAGGUCGCUGAAGGGAACAUGAGGAUCACCCAUGU [AstrosSSArgA#8]
3. UACAUAUGCCGAAGGAGCGCGAGAUGCAAAGCAUCAUUCCUCACAUGAGGAUCACCCAUGUCGCAGGUAGGUCGCGGCAUAUGUU [ArgBX]
4. ACUCGACCAUCAGCCAUUUGUGAAUCACGGCGAGGACCGGUACGGCCGCCACUCGACAUGAGGAUCACCCAUGUAAGACCGGUGU [vmullin3]
5. GCCAUCGGCGGAAGCCGAUGGUAUACAGAAGGAGCGUAGGAAACUACAGGUAGGUCGCUGGACAUGAGGAUCACCCAUGUAAUAG [#27 Same State - Arginine A]
6. UACGCUAGGGCGGCCGCCACUCGGACAUGAGGAUCACCCAUGUCGAUUAAUUGAAGGACAUGAAUGAGGACCGGGCUAAGCUAGG [Same State - Tryptophan B / B]
7. UCGUUUUAGUCGGCCGCCACUGGUCUCAUGUUCAACAUGAGGAUCACCCAUGUAUCUUAUUUUAACAGGACCGGGACGUAAUAGA [#16 Exclusion Tryptophan B]

Reply |
1. 206
2. 33
3. 40.3
4. 39.6
5. 17.5
6. 27.1
7. 140

Ask | Need apparent KD of MS2 coat protein of AGCAAGCAACAUGAGGAUCACCCAUGUGAAGGAGCGCCGAAUAAGGCAGGUAGGUCGCACAUGAAUAAAUCAUGUAAAAGCUUGC [MAT - Exclusion Arginine A - Mod of Eli - D23] , thanks.
Reply | 68.1

---

# System: MS2 coat protein
# protocol notes: apparent KD of MS2 coat protein; designed switch direction (-1 OFF switch, 1 ON switch): -1; higher = weaker reporter binding
# recorded conditions: input ligand: none
The recorded apparent KD of MS2 coat protein of each item maps onto one of these classes: lower band (below 0.03 µM), central band (0.03 µM to below 0.05 µM), upper band (0.05 µM or more)

Known results for sequences:
1) AGCCGUCUAGGAUAUACAUAAGAUCGGCAGUCUCCGUCGAGACAUGAGGAUCACCCAUGUAGAAGGAGGCGGGA [EX2 A.22] (Eterna round: R97, puzzle: Exclusion 2)
central band
2) AGUGUGUGGCAGGAUAUGCGAUUUGUAAGUGUUGCAGAAGGGUCUACAUGAGGAUCACCCAUGUGUGCGGUUGA [Ex6 #13] (Eterna round: R97, puzzle: Exclusion 6)
upper band
3) CCGAGGUAGCGGUCCUAUGACAUGAGGAUCACCCAUGUACCUCGCUACGAGCUUUUUGCUCGUCAUAUAAUUCUCGG [Mat - Sensor v3 - turn-off var 1 - JL Mod - D30] (Eterna round: R96, puzzle: Sensor v3, turn-off variant 1)
upper band
4) CCGCCGCAAGGAUAUACUUGCGGUGAUGUUCGAGUUCUUCUACUUGAGGAUCACCCAAGUAGAAGGUGCAAAAC [jl-ex2.4.59 ViennaUCT mod] (Eterna round: R97, puzzle: Exclusion 2)
lower band
5) UGAGUGCUGCGAGGAUAUACAUGAGGAUCACCCAUGUAAUCGUGUGAGGCAAAGCCUCACACGAAGUAGAAGGCGCAGUACUCU [Mat - Exclusion NG 2 - Mod of JL - D17] (Eterna round: R96, puzzle: Exclusion NG 2)
lower band

Read the next record carefully.
Ask | Pick a category. Item: ACUGGUCAUGAGGAUAUGCGCCAGAACGCCGGCGUAGAAGGCGUGACAUGAGGAUCACCCAUGUCAGUUCGCGA [eternacac ex6r4 sub30] (Eterna round: R97, puzzle: Exclusion 6)
Reply | central band

---

# Tested on: K4 kissing-loop RNA reporter
# protocol notes: apparent KD of K4 kissing-loop reporter; higher = weaker reporter binding
# recorded conditions: Eterna round: R107; input ligand: FMN 200 uM
The recorded apparent KD of K4 kissing-loop reporter of each item maps onto one of these classes: low = under 0.2 µM, mid = from 0.2 µM up to 0.5 µM, high = 0.5 µM and over

Known results for sequences:
1) AGUGUUAGGUUAGAUACCAGCCGUUCGUGAAUAGUCUUCGAACCGCCAGUGAUGUUGGCAGGCCCUUGGCAGCUAACAGAACAGA [Lagelare]
mid
2) GGAUAGGACAGAGGAUAUGGUAGUGAUGUUACCAAACUGGUUAUUAAUGUCAGAAAACUGGCAAAUCCAGAAGGCUGUCCUAUCG [KL-XFMN-B13]
low
3) AAAAUAAACCAGUGAUGUUGGUGUCUAGAUACCAGCGAUAAUAAUCGCCCUUGGCAGCUACGGACGUACAAAAUAAGUACGUCCU [MatMod 10 - Jieux - Same State - Theophylline A]
high
4) GCAUGUAUGCGAGAGUGAUGUUCAUGGUUUCGAGGACCGGUACGGCCGCCACUCGCGAUCCGGCGUACAAUCGUGAAGUUAUCAU [theeternabot_sameState_KL_Trp_A_42]
high
5) GCGGUGUUAUGCCCGAGGGUAUAGUUGCCAAAGGAUAUGAUUGUUGUCAGAAGGUUGCGCUUGAUCAGUGAUGUUGGUCUCCAAC [theeternabot_sameState_KL_FMN_A_12]
mid

Ask | Pick a category. Item: UGUCAUUGGUCGGCCGCCACUUCGUGUGGAGUGAUGUUUUGUAGAUUGUGUUGAAAGGUAUGGUGAAGGACCGGGACCGAUGACU [FiskerMod 21 - Jieux - Same State - Tryptophan B]
Reply | high

Ask | Pick a category. Item: GGUUUCUGAAGUGAUGUUUCAGGAUGACACAAGGAUAUAUAUGGCGAUAGAAGGUGUGCGUCGCAUGACGAACGACGUCAGCUUC [theeternabot_exclusion_KL_FMN_A_37]
Reply | low

Ask | Pick a category. Item: CGCCGUAAGGCGGUCGCUCCCACUCCGGAAGGAGCGCCCGCAAGGGCAGGUAGGUCGCCGGAGUGAUGUUCCGGUGGAGGGACCG [#2 Exclusion - Arginine A Attempt #7 (Inspired by Omei)]
Reply | mid

Ask | Pick a category. Item: AAAUUGUUUAGAGGAUAUUCUUUAUUCGACAUAACCUUCUAUAAGGUGCAGUGAUGUUGCAAUAUAGGAGAAGGCUGAGCGAUAA [Exclusion FMN B Gf 14]
Reply | mid

Ask | Pick a category. Item: GGACGACAGUCGGCCGCCACUCACAGCCGCCAGUGAUGUUGGAUUGUAGCGGAGUGAUGUUUCGCGAGGACCGGGACUGCAGUCC [Same State Tryptophan B GF 15]
Reply | mid

Ask | Pick a category. Item: UAAUCCUAGUGAUAAUAAUCAAGUGGUGGGCGAGGACCGGUACGGCCGCCACUCGAAAAUGCAGUGAUGUUGUAAUCCGGAUAAU [Exclusion - Tryptophan A (Freestyle 5)]
Reply | high

---

# Test system: K4 kissing-loop RNA reporter;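 further: bound reporter read as fluorescence of individual clusters on recovered sequencing chips by microscopy, with normalized cluster intensities fitted with a binding model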
# protocol notes: apparent KD of K4 kissing-loop reporter; higher = weaker reporter binding
# recorded conditions: Eterna round: R107; input ligand: tryptophan 2.4 mM
Assign condition met to entries whose apparent KD of K4 kissing-loop reporter meets or exceeds 0.1 µM; assign condition not met to the rest.

Known results for sequences:
1) GGAUAGGACAGAGGAUAUCUCUGAGGCAAGAAAACUUGUCUCAAAAGAGAUGACUCAGUGAUGUUGAGAGAAGGCUGUCCUAUCG [FmnBX 8 - #SwitchBubble #StaticStem]
condition met
2) AUUCGUUUAUGUGAUACCAGACUUUGCAGUGAUGUUGCAUUAAUUUUUGAUUAUUAGUUUGUCCCUUGGCAGCACUAUUUAUUUA [JR_SSTheophyB_Sub004]
condition not met
3) UUAGAGAUCUCAGGAUAUCAGUGAUGUUGGUAUCAAGAUCUGAGAUAGAAUUCUAUCUCAGAUCAAUGAGAAGGGAGAUCUCAUU [AK3.3 Exc FMN B]
condition met
4) CCUUUCAGUUACGAUACCAGUCUAAUAUAUUUGAUCAAUACCCUCGCCGAGUGAUGUUCGGACCCUUGGCAGCGUCUGGGACAGG [gbbymullin]
condition met
5) UAAUGCAUGACGGCCGCCACUAGUACUGGAGUGAUGUUGUGGUACGGCGGCAGUAUAGGGUGGACUAGGACCGGGUCAUGCAUAU [KL-XTryp-B11 #analogue]
condition met

Ask | Decide: is the reported value of apparent KD of K4 kissing-loop reporter for AACUGUUGGGAAGGAUAUUAUGGUGGCUAAAUCCAGUGAUGUUGGAAAUCGGUACUCGCCCACCUUUAAGAAGGUCCGUGAAAGA [theeternabot_sameState_KL_FMN_B_6] equal to or greater than 0.1 µM?
Reply | condition met
